Values compiled from patent EP1025114B1.

Entries with reported MIC on Micrococcus luteus ATCC 9341
Numbers only, in µg/mL.

• CC[C@H]1OC(=O)[C@H](C)C(=O)[C@H](C)[C@@H](O[C@@H]2O[C@H](C)C[C@H](N(C)C3CC3)[C@H]2O)[C@](C)(OCC=Cc2cnc3ccccc3c2)C[C@@H](C)C(=O)[C@H](C)[C@H]2NC(=O)O[C@@]21C [Example 13] = 0.39

Problem: Reported MIC for C=C(C)CN(C)[C@H]1C[C@@H](C)O[C@@H](O[C@@H]2[C@@H](C)C(=O)[C@@H](C)C(=O)O[C@H](CC)[C@@]3(C)OC(=O)N[C@@H]3[C@@H](C)C(=O)[C@H](C)C[C@@]2(C)OCC=Cc2cnc3ccccc3c2)[C@@H]1O [Example 19] : what is it?
Result: 0.05

---

test system: Micrococcus luteus ATCC 9341
Measured Endpoint: MIC (µg/mL)
One number for each entry, in µg/mL.

Illustrative cases are given below, each with its answer.
• CC[C@H]1OC(=O)[C@H](C)C(=O)[C@H](C)[C@@H](O[C@@H]2O[C@H](C)C[C@H](N(C)CC#N)[C@H]2O)[C@](C)(OCC=Cc2cnc3ccccc3c2)C[C@@H](C)C(=O)[C@H](C)[C@H]2NC(=O)O[C@@]21C = 0.02
• CCOC(=O)CN(C)[C@H]1C[C@@H](C)O[C@@H](O[C@@H]2[C@@H](C)C(=O)[C@@H](C)C(=O)O[C@H](CC)[C@@]3(C)OC(=O)N[C@@H]3[C@@H](C)C(=O)[C@H](C)C[C@@]2(C)OCC=Cc2cnc3ccccc3c2)[C@@H]1O = 0.78
• CC[C@H]1OC(=O)[C@H](C)C(=O)[C@H](C)[C@@H](O[C@@H]2O[C@H](C)C[C@H](NC)[C@H]2O)[C@](C)(OCC=Cc2cnc3ccccc3c2)C[C@@H](C)C(=O)[C@H](C)[C@H]2NC(=O)O[C@@]21C = 0.02

We now examine a further compound.
Problem: Reported MIC for CC[C@H]1OC(=O)[C@H](C)C(=O)[C@H](C)[C@@H](O[C@@H]2O[C@H](C)C[C@H](N(C)CC=Cc3ccccc3)[C@H]2O)[C@](C)(OCC=Cc2cnc3ccccc3c2)C[C@@H](C)C(=O)[C@H](C)[C@H]2NC(=O)O[C@@]21C : what is it?
Result: 0.05

---

Entries with reported MIC on Staphylococcus aureus 1775

Illustrative cases are given below, each with its answer.
- CC[C@H]1OC(=O)[C@H](C)C(=O)[C@H](C)[C@@H](O[C@@H]2O[C@H](C)C[C@H](N(C)Cc3ccccc3)[C@H]2O)[C@](C)(OCC=Cc2cnc3ccccc3c2)C[C@@H](C)C(=O)[C@H](C)[C@H]2NC(=O)O[C@@]21C: > 100 µg/mL
- CC[C@H]1OC(=O)[C@H](C)C(=O)[C@H](C)[C@@H](O[C@@H]2O[C@H](C)C[C@H](N(C)C(C)=O)[C@H]2O)[C@](C)(OCC=Cc2cnc3ccccc3c2)C[C@@H](C)C(=O)[C@H](C)[C@H]2NC(=O)O[C@@]21C: > 100 µg/mL

Problem: // lookup MIC | system=Staphylococcus aureus 1775 | key= CC[C@H]1OC(=O)[C@H](C)C(=O)[C@H](C)[C@@H](O[C@@H]2O[C@H](C)C[C@H](N(C)C3CC3)[C@H]2O)[C@](C)(OCC=Cc2cnc3ccccc3c2)C[C@@H](C)C(=O)[C@H](C)[C@H]2NC(=O)O[C@@]21C [Example 20]
Result: > 100 µg/mL

---

tested on: Micrococcus luteus ATCC 9341
Measured Endpoint: MIC (mg/L)
Give bare numbers, in mg/L.

Illustrative cases are given below, each with its answer.
- CC[C@H]1OC(=O)[C@H](C)C(=O)[C@H](C)[C@@H](O[C@@H]2O[C@H](C)C[C@H](N(C)CC3CC3)[C@H]2O)[C@](C)(OCC=Cc2cnc3ccccc3c2)C[C@@H](C)C(=O)[C@H](C)[C@H]2NC(=O)O[C@@]21C: 0.05
- CC[C@H]1OC(=O)[C@H](C)C(=O)[C@H](C)[C@@H](O[C@@H]2O[C@H](C)C[C@H](N(C)CCF)[C@H]2O)[C@](C)(OCC=Cc2cnc3ccccc3c2)C[C@@H](C)C(=O)[C@H](C)[C@H]2NC(=O)O[C@@]21C: 0.05
- C=CCN(C)[C@H]1C[C@@H](C)O[C@@H](O[C@@H]2[C@@H](C)C(=O)[C@@H](C)C(=O)O[C@H](CC)[C@@]3(C)OC(=O)N[C@@H]3[C@@H](C)C(=O)[C@H](C)C[C@@]2(C)OCC=Cc2cnc3ccccc3c2)[C@@H]1O: 0.02

We now examine a further compound.
Problem: Reported MIC for CC[C@H]1OC(=O)[C@H](C)C(=O)[C@H](C)[C@@H](O[C@@H]2O[C@H](C)C[C@H](N(C)C3CC3)[C@H]2O)[C@](C)(OCC=Cc2cnc3ccccc3c2)C[C@@H](C)C(=O)[C@H](C)[C@H]2NC(=O)O[C@@]21C [Example 20] : what is it?
Result: 0.39

---

Entries with reported MIC on Staphylococcus aureus 1775

Illustrative cases are given below, each with its answer.
* CC[C@H]1OC(=O)[C@H](C)[C@@H](O[C@H]2C[C@@](C)(OC)[C@@H](O)[C@H](C)O2)[C@H](C)[C@@H](O[C@@H]2O[C@H](C)C[C@H](N(C)C)[C@H]2O)[C@](C)(O)C[C@@H](C)C(=O)[C@H](C)[C@@H](O)[C@]1(C)O [Ery. A, Erythromycin A, reference compound] | > 100 mg/L
* CC[C@H]1OC(=O)[C@H](C)C(=O)[C@H](C)[C@@H](O[C@@H]2O[C@H](C)C[C@H](N(C)CC3CC3)[C@H]2O)[C@](C)(OCC=Cc2cnc3ccccc3c2)C[C@@H](C)C(=O)[C@H](C)[C@H]2NC(=O)O[C@@]21C | > 100 mg/L
* CC[C@H]1OC(=O)[C@H](C)C(=O)[C@H](C)[C@@H](O[C@@H]2O[C@H](C)C[C@H](N(C)Cc3cccnc3)[C@H]2O)[C@](C)(OCC=Cc2cnc3ccccc3c2)C[C@@H](C)C(=O)[C@H](C)[C@H]2NC(=O)O[C@@]21C | > 100 mg/L

Problem: Reported MIC for CC[C@H]1OC(=O)[C@H](C)C(=O)[C@H](C)[C@@H](O[C@@H]2O[C@H](C)C[C@H](N(C)CCF)[C@H]2O)[C@](C)(OCC=Cc2cnc3ccccc3c2)C[C@@H](C)C(=O)[C@H](C)[C@H]2NC(=O)O[C@@]21C : what is it?
Result: > 100 mg/L

---

Entries with reported MIC on Streptococcus agalactiae CMX 508
Answers are plain numbers, in µg/mL.

* CC[C@H]1OC(=O)[C@H](C)C(=O)[C@H](C)[C@@H](O[C@@H]2O[C@H](C)C[C@H](N(C)CC=Cc3ccccc3)[C@H]2O)[C@](C)(OCC=Cc2cnc3ccccc3c2)C[C@@H](C)C(=O)[C@H](C)[C@H]2NC(=O)O[C@@]21C | 0.05
* CC[C@H]1OC(=O)[C@H](C)C(=O)[C@H](C)[C@@H](O[C@@H]2O[C@H](C)C[C@H](N(C)CC3CC3)[C@H]2O)[C@](C)(OCC=Cc2cnc3ccccc3c2)C[C@@H](C)C(=O)[C@H](C)[C@H]2NC(=O)O[C@@]21C | 0.05
* CCOC(=O)CN(C)[C@H]1C[C@@H](C)O[C@@H](O[C@@H]2[C@@H](C)C(=O)[C@@H](C)C(=O)O[C@H](CC)[C@@]3(C)OC(=O)N[C@@H]3[C@@H](C)C(=O)[C@H](C)C[C@@]2(C)OCC=Cc2cnc3ccccc3c2)[C@@H]1O | 1.56
* CC[C@H]1OC(=O)[C@H](C)C(=O)[C@H](C)[C@@H](O[C@@H]2O[C@H](C)C[C@H](N(C)CCF)[C@H]2O)[C@](C)(OCC=Cc2cnc3ccccc3c2)C[C@@H](C)C(=O)[C@H](C)[C@H]2NC(=O)O[C@@]21C | 0.05
* C#CCN(C)[C@H]1C[C@@H](C)O[C@@H](O[C@@H]2[C@@H](C)C(=O)[C@@H](C)C(=O)O[C@H](CC)[C@@]3(C)OC(=O)N[C@@H]3[C@@H](C)C(=O)[C@H](C)C[C@@]2(C)OCC=Cc2cnc3ccccc3c2)[C@@H]1O | 0.01
* CC[C@H]1OC(=O)[C@H](C)C(=O)[C@H](C)[C@@H](O[C@@H]2O[C@H](C)C[C@H](N(C)CC#N)[C@H]2O)[C@](C)(OCC=Cc2cnc3ccccc3c2)C[C@@H](C)C(=O)[C@H](C)[C@H]2NC(=O)O[C@@]21C | 0.01
* CC[C@H]1OC(=O)[C@H](C)C(=O)[C@H](C)[C@@H](O[C@@H]2O[C@H](C)C[C@H](N(C)C(C)=O)[C@H]2O)[C@](C)(OCC=Cc2cnc3ccccc3c2)C[C@@H](C)C(=O)[C@H](C)[C@H]2NC(=O)O[C@@]21C | 0.39

We now examine a further molecule.
Problem: Reported MIC for CC[C@H]1OC(=O)[C@H](C)C(=O)[C@H](C)[C@@H](O[C@@H]2O[C@H](C)C[C@H](NC)[C@H]2O)[C@](C)(OCC=Cc2cnc3ccccc3c2)C[C@@H](C)C(=O)[C@H](C)[C@H]2NC(=O)O[C@@]21C : what is it?
Result: 0.02
